All figures here come from patent US20020137929A1.

Tested on: AMBEL (Ragweed, Common)
MEASUREMENT PROTOCOL: Preemergence herbicidal evaluation
Type: in vivo, Ambrosia artemisifolia
TEST CONTEXT: rate 0.2500 kg/ha; rated 4-5 weeks after treatment
Description: Results of herbicide evaluation are expressed on a rating scale (0-9). The scale is based upon a visual observation of plant stand, vigor, malformation, size, chlorosis and overall plant appearance as compared with a control. […] The compounds evaluated are reported by compound number given in Example 37.
MEASUREMENT TYPE: AMBEL preemergence herbicidal rating
Reply briefly: the number, and no unit.

Previously resolved entries follow.
- MOLECULE: "CCC1SC(=Nc2cc(-n3c(=O)cc(C(F)(F)F)n(C)c3=O)c(F)cc2Cl)N(C)C1=O (stereo not shown) [Compound 10]"
  SYSTEM NAME: "AMBEL (Ragweed, Common)"
  TEST VALUE: 6.3
- MOLECULE: "CCOC(=O)CN1C(=O)C(C)SC1=Nc1cc(-n2c(=O)cc(C(F)(F)F)n(C)c2=O)c(F)cc1Cl (stereo not shown) [Compound 12]"
  SYSTEM NAME: "AMBEL (Ragweed, Common)"
  TEST VALUE: 9.0

Record request: AMBEL preemergence herbicidal rating value, item CC1SC(=Nc2cc(N3C(=O)C4=C(CCCC4)C3=O)c(F)cc2Cl)N(C)C1=O (stereo not shown) [Compound 4]
1.0

Record request: AMBEL preemergence herbicidal rating value, item CN1C(=O)CSC1=Nc1cc(N2C(=O)C3=C(CCCC3)C2=O)c(F)cc1Cl [Compound 1]
5.0
